- measurement target: Dopamine D2 Receptor (hD2L) (Homo sapiens, UniProt P14416)
- Construct: expressed in transfected cells; host or cells: CHO cells (CHO-hD2L)
- Sequence (P14416 whole entry): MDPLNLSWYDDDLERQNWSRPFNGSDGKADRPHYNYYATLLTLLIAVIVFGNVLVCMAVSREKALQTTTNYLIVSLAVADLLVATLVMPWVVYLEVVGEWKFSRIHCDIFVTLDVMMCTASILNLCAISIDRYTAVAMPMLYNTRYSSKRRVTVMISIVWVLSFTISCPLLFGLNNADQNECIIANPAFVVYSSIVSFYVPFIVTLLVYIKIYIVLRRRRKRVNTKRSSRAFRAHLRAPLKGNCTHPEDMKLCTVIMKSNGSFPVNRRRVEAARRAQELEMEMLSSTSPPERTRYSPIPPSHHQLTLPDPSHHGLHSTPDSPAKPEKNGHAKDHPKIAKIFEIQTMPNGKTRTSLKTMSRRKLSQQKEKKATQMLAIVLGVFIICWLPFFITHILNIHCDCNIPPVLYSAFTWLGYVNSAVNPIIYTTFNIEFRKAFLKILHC
- assay info: Dopamine D2 Receptor Binding Assay ([3H]spiperone, CHO-hD2L membranes)
- condition description: [3H]spiperone 0.4 nM, HCl salt tested
observable: Ki

[[record]]
compound = "O=c1ccc2ccc(OCCCCN3CCN(c4cccc(Cl)c4C(F)(F)F)CC3)nc2[nH]1 [compound of formula (I)]"
endpoint_result = "3.9 nM"

